System: human colon adenocarcinoma cell lines HT-29, Caco-2 and T84; IEC-18 cell line
Assay: Transport experiments through intestinal cell layers on Transwell polycarbonate membranes (apical to basolateral)
Type: in vitro ADME
Design: key: +++: very good transport; ++: good transport; +: moderate transport
Settings: transport rate from apical side through the cell layer to basolateral side, e.g. apical (pH 6.0) to basolateral (pH 8.0), e.g. 24 h; HPLC; divided into categories
endpoint label: Transport

# example entries with known answers
CCCCCCCCCCCCCCCCOC(=O)CN[C@H](CC1CCCCC1)C(=O)N1CC=CC1C(=O)NCc1nc(C(N)=NO)cs1.Cl (stereo partly shown); ++
CC(C)COC(=O)NC(=N)c1ccc(CNC(=O)C2C=CCN2C(=O)[C@H](NCC(=O)O)C2CCCCC2)s1.Cl (stereo partly shown); +
Cc1ccc(CON=C(N)c2ccc(CNC(=O)C3C=CCN3C(=O)[C@H](NCC(=O)O)C3CCCCC3)s2)cc1.Cl (stereo partly shown); +
CCCCCCCCCCCCCCCCOC(=O)CN[C@H](CC1CCCCC1)C(=O)N1CC=CC1C(=O)NCc1nc(C(=N)N)cs1.Cl.Cl (stereo partly shown); ++
CCOC(=O)CN[C@@H](C(=O)N1CC=CC1C(=O)NCc1ccc(C(N)=NOCc2ccc(C)cc2)s1)C1CCCCC1.Cl (stereo partly shown); +++

// recorded Transport for CC(C)CCOC(=O)CN[C@H](CC1CCCCC1)C(=O)N1CC=CC1C(=O)NCc1nc(C(N)=NO)cs1.Cl (stereo partly shown) : +++

// recorded Transport for CCCCCCOC(=O)CN[C@H](CC1CCCCC1)C(=O)N1CC=CC1C(=O)NCc1nc(C(N)=NO)cs1.Cl (stereo partly shown) : ++

Reference for the values: patent US7144902B1
